These measurements were taken from patent US8299056B2.

- STUDY TARGET: Syk (Homo sapiens)
- Construct: purchased Carna Biosciences
- EXPERIMENT: Syk HTRF assay
- Assay type: biochemical
- EXPERIMENTAL SETUP: IC50 activity level, read-out: Activity Level
So I've got a bunch of compounds here, and I need their IC50 values.

                                   compound        study_target   recorded_result
0  Fc1ccc(Nc2nc3cccc(-c4ccc5cn[nH]c5c4)n3n2)cc1 [Example 436]  Syk (Homo sapiens)   0.005 to 250 nM
1  Nc1n[nH]c2cc(-c3cccc4nc(Nc5ccccc5)nn34)ccc12 [Example 439]  Syk (Homo sapiens)   0.005 to 250 nM
2  c1cc(NC2CCOCC2)n2nc(Nc3ccc(-c4nc[nH]n4)cc3)nc2c1 [Example 565]  Syk (Homo sapiens)  1000 to 10000 nM
3  NC(=O)c1ccc(Nc2nc3cccc(N[C@H]4CC[C@@H](N)CC4)n3n2)cc1 [Example 493]  Syk (Homo sapiens)   0.005 to 250 nM

Input: Read the entry COCc1nc2ccc(-c3cccc4nc(Nc5ccc(C(F)(F)F)cc5)nn34)cc2[nH]1 [Example 401] and write its reported IC50.
Output: 0.005 to 250 nM

###

- STUDY TARGET: Syk (Homo sapiens)
- Construct: purchased Carna Biosciences
- EXPERIMENT: Syk HTRF assay
- Type: biochemical
- EXPERIMENTAL SETUP: activity levels A-D, read-out: Activity Level (IC50 in the Syk HTRF assay)
READOUT TYPE: IC50

Some solved entries appear below for comparison.
>>> df
                                   molecule        study_target  readout_type  recorded_result
0  Cc1ccc(Nc2nc3cccc(-c4ccc5nc(CO)[nH]c5c4)n3n2)cn1  Syk (Homo sapiens)          IC50  0.005 to 250 nM
1  CN(C)c1ccc(Nc2nc3cccc(N[C@H]4CC[C@@H](O)CC4)n3n2)cn1  Syk (Homo sapiens)          IC50    250 to 500 nM
2  COCCOc1cc(Nc2nc3cccc(N[C@H]4CC[C@@H](O)CC4)n3n2)ccc1F  Syk (Homo sapiens)          IC50  0.005 to 250 nM
3  Cc1n[nH]c2cc(Nc3nc4cccc(C[C@H]5CC[C@H](O)CC5)n4n3)ccc12 (stereo in doubt)  Syk (Homo sapiens)          IC50  0.005 to 250 nM

Please state IC50 for every molecule in the list that follows.
1. NCCOc1cccc2nc(Nc3ccc(C(F)(F)F)cc3)nn12
2. O[C@H]1CCN(Cc2cccc3nc(Nc4ccc(C(F)(F)F)cc4)nn23)C1
3. Cc1ccc(Nc2nc3cccc(N[C@H]4CC[C@@H](O)CC4)n3n2)cc1

Output:
500 to 1000 nM
1000 to 10000 nM
0.005 to 250 nM

Please state IC50 for every molecule in the list that follows.
1. O[C@@H]1CCC[C@H](Nc2cccc3nc(Nc4ccc(C(F)(F)F)cc4)nn23)C1 (single isomer, unassigned; enantiomer 1)
2. OC1CCN(c2cccc3nc(Nc4ccc(C(F)(F)F)cc4)nn23)CC1
3. CC1CNC(=O)CN1Cc1cccc2nc(Nc3ccc(C(F)(F)F)cc3)nn12 (stereo not shown)
4. OC[C@]1(O)CC[C@@H](Nc2cccc3nc(Nc4ccc(C(F)(F)F)cc4)nn23)CC1

Output:
1. 1000 to 10000 nM
2. 500 to 1000 nM
3. 500 to 1000 nM
4. 0.005 to 250 nM
